target: human Fc (human); experiment: ELISA, negative control
Please go through the items and note down their optical density.
Give bare numbers, in OD.

{"BINDER": "371_G09 (antibody, V domains shown) VH: EVQLLESGGGLVQPGGSLRLSCAASGFTFSSYSMNWVRQAPGKGLEWVANINYNGGYTGYADSVKGRFTISRDNSKNTLYLQMNSLRAEDTAVYYCARGANWHDTALDYWGQGTLVTVSS VL: DIQMTQSPSSLSASVGDRVTITCRASQSILSYLNWYQQKPGKAPKLVIYAATSRASGVPSRFSGSGSGTDFTLTISSLQPEDFATYYCQQSDSTPLTFGGGTKVEIK", "optical density [OD]": 0.315}

Entry 374_D11 (antibody, V domains shown) VH: EVQLLESGGGLVQPGGSLRLSCAASGFTFDSYGMNWVRQAPGKGLEWVSNINYNSGYTGYADSVKGRFTISRDNSKNTLYLQMNSLRAEDTAVYYCARSATWHDTHLDYWGQGTLVTVSS VL: DIQMTQSPSSLSASVGDRVTITCRASQSILTYLNWYQQKPGKAPKLLIYAATSRASGVPSRFSGSGSGTDFTLTISSLQPEDFATYYCQQSYETPLTFGGGTKVEIK has what optical density? 0.162
